- Measured Target: Glucose transporter (Leishmania mexicana)
- Assay Procedure: ST_JUDE_LEISH: Cytotoxicity at 2uM final concentration against transgenic Leishmania Mexicana promastigotes LmGT2 that are glucose transport deficient and complemented with the L. Mexicana glucose transporter 2. Activity is measured by DNA content using SYBR green in vitro
- Format: functional
Class (required): determined from inhibition; valid ranges are lower bin (below 0.4%), middle bin (0.4% to below 4%), upper bin (4% or more)

These recorded examples may help you get a feel for the data.
COc1ccc(CCNc2ccnc3cc(Cl)ccc23)cc1OC : lower bin
Cc1ccc(CN(Cc2ccc(C(=O)N(C)C)cc2)Cc2ccc3c(c2)OCCO3)cc1C : lower bin
CC(C)[C@H](NC(=O)c1ccc(O)c(-c2ccc(Cl)c(Cl)c2)c1)C(=O)NCCN1CCCC1 : lower bin
COc1ccc(N2CCN(CCCCNC(=O)c3ccc(NC(=O)c4ccc(C(F)(F)F)cc4)cc3)CC2)c(OC)c1 : upper bin
CC1CCCN(Cc2c(O)ccc3c(O)c(-c4nc5ccccc5s4)c(=N)oc23)C1 (centres undefined) : middle bin
COc1ccc2[nH]ccc(=NN=Cc3ccccc3F)c2c1 : upper bin

From here, focus on the item given below.
Sort into band: COc1ccccc1CN1CCC(NC(=O)c2ccc(-c3cccc(Cl)c3)s2)CC1
middle bin
